Reference source for all entries: the Human Domainome abundance scans (Beltran et al. 2025)

Please provide measured abundance fitness for the entries that follow.
B1: RNA-binding E3 ubiquitin-protein ligase MEX3C, residues 325 to 391; numbered along this chain, Q5U5Q3 (parent)
chain: GQTTVQVRVPYRVVGLVVGPKGATIKRIQQQTHTYIVTPSRDKEPVFEVTGMPENVDRAREEIEMHI

Variants of: B1
experimental protocol: abundance fitness (aPCA) (normalised: wild type 0, dead -1); higher = more abundant; growth selection in yeast, the domain comes from the species named
setup conditions: Homo sapiens
Lab note: write the figure by itself, no unit.

The variant listed as GQTTVQVRVPYRVVGLVVGPKGATIKRIQQQTHTYIVTPSRNKEPVFEVTGMPENVDRAREEIEMHI [D42N] has a reported abundance fitness of -0.071

What the record says about GQTTVQVRVPYRVVGLVVGPKGATIKRIVQQTHTYIVTPSRDKEPVFEVTGMPENVDRAREEIEMHI [Q29V] : abundance fitness is -0.746

Entry under test: GQTTVQVRVPYRVVGLVVGPKGATIKRIQQQTHRYIVTPSRDKEPVFEVTGMPENVDRAREEIEMHI [T34R] . Its abundance fitness was -0.641

abundance fitness measured on GQTTVQVRVPYRVVGLVVGPKGATIKRIQQQTHTYIVTPSRDKEPVFEVHGMPENVDRAREEIEMHI [T50H] = -0.315

Per the record, GQTTVQVRVPYRVVGLVVGPKGATIKRIQQQIHTYIVTPSRDKEPVFEVTGMPENVDRAREEIEMHI [T32I] has abundance fitness of -0.944

Consider GQTTVQVRVPYRVVGLVVGPKGATIKWIQQQTHTYIVTPSRDKEPVFEVTGMPENVDRAREEIEMHI [R27W] . Its measured abundance fitness is -0.241

Given item GQTTVQVRVPYRVVGLVVGPKGATIKRIQQQTHTYIVTPSADKEPVFEVTGMPENVDRAREEIEMHI [R41A] , the value recorded as its abundance fitness is 0.017

abundance fitness reported for this variant GQTTVQVRVPYRVVGLVVGPKGATISRIQQQTHTYIVTPSRDKEPVFEVTGMPENVDRAREEIEMHI [K26S] : -0.483

Consider GQTTVQVRVPYRVVGLVVGPKGATIKRIQQQCHTYIVTPSRDKEPVFEVTGMPENVDRAREEIEMHI [T32C] . Its measured abundance fitness is -0.578

The variant listed as GQTTVQVRVPYRVVGLVVGPKGSTIKRIQQQTHTYIVTPSRDKEPVFEVTGMPENVDRAREEIEMHI [A23S] has a reported abundance fitness of -0.08

Sure, the documented abundance fitness for GQTTVQVRVPYRVVGLVVGPKGATGKRIQQQTHTYIVTPSRDKEPVFEVTGMPENVDRAREEIEMHI [I25G] is -0.68
